molecular target: T1, recombinant human DLL4 (human, UniProt Q9NR61 25-522); assay: binding ELISA, coated rhDLL4
T1 construct: also called rhDLL4; hDLL4
T1 sequence (Q9NR61 25-522): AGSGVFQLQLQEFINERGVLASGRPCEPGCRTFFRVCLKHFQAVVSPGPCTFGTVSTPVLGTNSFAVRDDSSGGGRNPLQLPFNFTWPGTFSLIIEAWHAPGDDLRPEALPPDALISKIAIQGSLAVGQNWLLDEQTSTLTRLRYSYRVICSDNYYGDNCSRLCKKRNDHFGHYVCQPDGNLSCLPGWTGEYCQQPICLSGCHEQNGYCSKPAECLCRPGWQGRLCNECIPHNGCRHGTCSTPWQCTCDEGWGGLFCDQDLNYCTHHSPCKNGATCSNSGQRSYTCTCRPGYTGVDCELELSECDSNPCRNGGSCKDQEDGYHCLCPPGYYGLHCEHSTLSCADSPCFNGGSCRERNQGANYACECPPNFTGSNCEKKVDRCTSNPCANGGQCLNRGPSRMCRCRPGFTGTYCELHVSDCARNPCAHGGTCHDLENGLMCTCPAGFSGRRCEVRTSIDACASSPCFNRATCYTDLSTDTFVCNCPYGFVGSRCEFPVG
outcome-measure: EC50
Mention the unit after the number when you answer.

Consider the reported EC50 for these binders:
binder	reported-value
DLLBII56C04 (VHH) VHH: EVQLVESGGGLVQPGGSLRLSCTASGFTFDVYAIGWFRQAPGKEPEGISCISSSGSITYYADSVKGRFTTSRDSAKNTVYLQMNSLKPEDTAVYYCATPGIAACRGIHYWGQGTQVTVSS	44.3 nM
DLLBII96C03 (VHH, also called 96C3) VHH: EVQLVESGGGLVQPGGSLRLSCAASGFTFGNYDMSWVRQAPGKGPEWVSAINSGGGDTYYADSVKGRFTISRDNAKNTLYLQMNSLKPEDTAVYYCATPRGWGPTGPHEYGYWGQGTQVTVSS	86.5 nM
DLLBII19F04 (VHH) VHH: EVQLVESGGGLVQAEGSLRLSCAASGSTFSTYAMAWYRQAPGKQRELVAGISFDGSTHYAESVKGRFTISRDDAKNTVSLQMNSLKPEDAAVYYCYSVHPSTGFGSWGQGTQVTVSS	0.9 nM

Okay, now this binder:
Respond only with EC50 recorded for DLLBII07A02 (VHH) VHH: EVQLVESGGGLVQAGGSLRLSCAASGSTFNSYAMGWYRQAPGKQREWVAAFSTGGSTNYADSVKGRFTISRDNAKNTVYLQMNSLKPEDTAVYYCFYSGSYYYPTDVFEYDYWGQGTQVTVSS 1.4 nM
